molecular target: CeuE double mutant H227L/Y288F (Campylobacter jejuni, UniProt Q0P8Q4, H247L/Y308F); assay: Intrinsic fluorescence quenching titration, CeuE double mutant H227L/Y288F
pKd: −log10 of the molar value.
Property Name: pKd

Look up pKd for this compound: O=C(NCCCCCNC(=O)c1cccc(O)c1O)c1cccc(O)c1O
< 6.00

* * *

Target: CeuE single mutant Y228F (Campylobacter jejuni, UniProt Q0P8Q4, Y308F)
Sequence (Q0P8Q4 44-330 Y308F): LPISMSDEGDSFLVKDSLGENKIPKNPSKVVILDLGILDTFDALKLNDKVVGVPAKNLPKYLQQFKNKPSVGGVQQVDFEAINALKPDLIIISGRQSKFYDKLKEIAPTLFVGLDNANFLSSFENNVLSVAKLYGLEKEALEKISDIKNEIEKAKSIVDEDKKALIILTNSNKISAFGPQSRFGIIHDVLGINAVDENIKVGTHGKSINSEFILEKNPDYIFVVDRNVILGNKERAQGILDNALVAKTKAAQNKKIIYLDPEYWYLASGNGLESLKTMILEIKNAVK
Experiment: Intrinsic fluorescence quenching titration, CeuE single mutant Y228F
pKd: −log10 of the molar value.
Property Name: pKd

// pKd lookup, key: O=C(NCCCCCNC(=O)c1cccc(O)c1O)c1cccc(O)c1O
< 6.00

* * *

Target: WT CeuE (Campylobacter jejuni, UniProt Q0P8Q4)
Sequence (Q0P8Q4 44-330): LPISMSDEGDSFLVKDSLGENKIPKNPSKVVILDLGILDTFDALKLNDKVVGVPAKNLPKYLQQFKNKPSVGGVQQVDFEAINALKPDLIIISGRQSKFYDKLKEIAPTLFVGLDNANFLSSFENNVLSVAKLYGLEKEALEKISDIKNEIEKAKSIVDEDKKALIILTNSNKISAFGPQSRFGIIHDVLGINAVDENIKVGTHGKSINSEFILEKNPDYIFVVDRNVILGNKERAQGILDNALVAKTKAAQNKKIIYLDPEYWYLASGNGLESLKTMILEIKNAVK
Measured Kd by item

O=C(NCCCCCCNC(=O)c1cccc(O)c1O)c1cccc(O)c1O; 33 nM
O=C(NCCCCCCCCNC(=O)c1cccc(O)c1O)c1cccc(O)c1O; 58 nM
O=C(NCCCCNC(=O)c1cccc(O)c1O)c1cccc(O)c1O; 21 nM

// switching to the query compound
Bench note: what Kd did O=C(NCCCCCNC(=O)c1cccc(O)c1O)c1cccc(O)c1O show?
< 10 nM

* * *

Target: CeuE mutant H227L (Campylobacter jejuni, UniProt Q0P8Q4, H247L)
Assay: Intrinsic fluorescence quenching titration, CeuE mutant H227L
Conditions: 240 nM protein in 40 mM Tris-HCl pH 7.5, 150 mM NaCl; 1:1 binding model; triplicate
Method: The affinities of CeuE for the four Fe-n-Lic complexes were quantified using intrinsic fluorescence quenching, Table 1, with measurements carried out in triplicate. The data were fitted to a 1:1 binding model and analyzed by non-linear regression. […] Fluorescence quenching studies with CeuE were carried out on a Hitachi F-4500 fluorescence spectrophotometer as previously reported. […]
Property Name: pKd
Scale explanation: pKd corresponds to minus log10 of a concentration expressed in moles per litre.

Example entries and their recorded answers appear below.
O=C(NCCCCCNC(=O)c1cccc(O)c1O)c1cccc(O)c1O; 7.66
O=C(NCCCCCCNC(=O)c1cccc(O)c1O)c1cccc(O)c1O; 7.19
O=C(NCCCCNC(=O)c1cccc(O)c1O)c1cccc(O)c1O; 7.05

Consider now this further molecule.
Sample O=C(NCCCCCCCCNC(=O)c1cccc(O)c1O)c1cccc(O)c1O — what was its pKd?
6.95

* * *

target: CeuE mutant H227A (Campylobacter jejuni, UniProt Q0P8Q4, H247A); assay: Intrinsic fluorescence quenching titration, CeuE mutant H227A; settings: 240 nM protein in 40 mM Tris-HCl pH 7.5, 150 mM NaCl; 1:1 binding model; triplicate
Measured pKd accompanies every entry in the list below.
A value of pKd is the negative decimal logarithm of a concentration given in moles per litre.

Answered cases to consult:
O=C(NCCCCCCCCNC(=O)c1cccc(O)c1O)c1cccc(O)c1O; 6.90
O=C(NCCCCNC(=O)c1cccc(O)c1O)c1cccc(O)c1O; 6.88

Give the measured pKd of O=C(NCCCCCNC(=O)c1cccc(O)c1O)c1cccc(O)c1O .
7.46

What do we get for O=C(NCCCCCCNC(=O)c1cccc(O)c1O)c1cccc(O)c1O ?
7.39
